Numbers sourced from PubChem BioAssay (NCI).

system: MDA-N; assay: NCI tumour cell line growth inhibition, 48 h
assay.endpoint: TGI

Consider the following illustrative entries.
# structure, TGI
data = [
    ("COc1cc(OC)c(OC)cc1/C=C/c1cc[n+](C)c2ccccc12", "> 100 µM"),
    ("O=C1NC(=Nc2ccccc2Cl)N/C1=C\\c1ccc(Cl)cc1Cl", "> 100 µM"),
]

So, CCOc1cc(-c2nc3cc(F)ccc3s2)ccc1O ? Its TGI was 31.7 µM

So, Cc1cc(C)nc(NS(=O)(=O)c2ccc(NC(=O)c3cc([N+](=O)[O-])cc([N+](=O)[O-])c3)cc2)n1 ? Its TGI was > 100 µM
